pKd values, listed per item
molecular target: BRAF (V600E) (Homo sapiens, UniProt P15056, V600E); assay: KD BRAF (V600E) (Table 1)
Sequence (P15056 whole entry V600E): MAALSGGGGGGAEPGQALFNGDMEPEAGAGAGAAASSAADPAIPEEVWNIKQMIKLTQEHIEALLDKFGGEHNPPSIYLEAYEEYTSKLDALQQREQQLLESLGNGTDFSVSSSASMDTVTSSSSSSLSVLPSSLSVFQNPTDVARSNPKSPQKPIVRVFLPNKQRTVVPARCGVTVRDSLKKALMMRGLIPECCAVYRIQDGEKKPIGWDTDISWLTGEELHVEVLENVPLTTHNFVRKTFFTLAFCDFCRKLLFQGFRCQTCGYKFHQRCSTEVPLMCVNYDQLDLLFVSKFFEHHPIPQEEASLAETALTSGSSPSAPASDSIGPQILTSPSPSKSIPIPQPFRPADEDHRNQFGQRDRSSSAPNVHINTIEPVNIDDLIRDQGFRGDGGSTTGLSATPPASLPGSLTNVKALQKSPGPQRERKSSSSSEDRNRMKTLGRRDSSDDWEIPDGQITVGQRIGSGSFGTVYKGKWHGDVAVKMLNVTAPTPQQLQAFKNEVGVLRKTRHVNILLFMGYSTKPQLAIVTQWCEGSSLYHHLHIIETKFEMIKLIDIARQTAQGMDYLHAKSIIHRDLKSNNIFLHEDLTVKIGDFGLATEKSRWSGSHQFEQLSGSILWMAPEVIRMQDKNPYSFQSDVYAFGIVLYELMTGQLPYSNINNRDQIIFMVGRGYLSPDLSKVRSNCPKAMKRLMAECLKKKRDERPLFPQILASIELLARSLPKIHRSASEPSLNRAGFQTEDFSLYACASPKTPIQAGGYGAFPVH
pKd is a log-scale quantity: -log10 of the concentration expressed in molar.

Task: For the compound "CC(C)(C)OC(=O)N1CCC(CCn2cnc3ccc(Oc4c(F)ccc(NS(=O)(=O)N5CC[C@@H](F)C5)c4C#N)cc3c2=O)CC1" , report pKd.
Output: 7.67

Task: For the compound "CC(C)(C)OC(=O)N1CCC(CCn2cnc3ccc(Oc4c(F)ccc(NS(=O)(=O)C5CCCCC5)c4C#N)cc3c2=O)CC1" , report pKd.
Output: 6.94

Task: For the compound CC(C)(C)OC(=O)N1CCCC(CCn2cnc3ccc(Oc4c(F)ccc(NS(=O)(=O)N5CCCC5)c4C#N)cc3c2=O)C1 (stereo not shown) , report pKd.
Output: 7.99

Task: For the compound "CC(C)(C)OC(=O)N1CCC(CCn2cnc3ccc(Oc4c(F)ccc(NS(=O)(=O)C5CCC5)c4C#N)cc3c2=O)CC1" , report pKd.
Output: 7.17

Task: For the compound "CC(C)(C)OC(=O)N1CCC(CCn2cnc3ccc(Oc4c(F)ccc(NS(=O)(=O)N5CCCC5)c4C#N)cc3c2=O)CC1" , report pKd.
Output: 7.68

Task: For the compound "CCN(C)S(=O)(=O)Nc1ccc(F)c(Oc2ccc3ncn(CCCC(=O)OC(C)(C)C)c(=O)c3c2)c1C#N" , report pKd.
Output: 7.57

Task: For the compound "CC(=O)N(C)CCCn1cnc2ccc(Oc3c(F)ccc(NS(=O)(=O)N4CCCC4)c3C#N)cc2c1=O" , report pKd.
Output: 9.26

---

pEC50 values, listed per item
system: P-ERK (ERK phospho-T202/Y204) in HCT116 cells expressing WT BRAF; test: HTRF assay for P-ERK determination in HCT116 cells (BRAF activation); type: cell-based; settings: Homo sapiens, HCT-116, drug incubation 1 hour, concentration giving 50% of the maximum activation achieved by Dabrafenib
pEC50 is a log-scale quantity: -log10 of the concentration expressed in molar.

Task: For the molecule "CC(C)(C)OC(=O)N1CCN(CCn2cnc3ccc(Oc4c(F)ccc(NS(=O)(=O)N5CCCC5)c4C#N)cc3c2=O)CC1" , report pEC50.
Output: 6.62

Task: For the molecule "CC(C)(C)OC(=O)N1CCN(CCn2cnc3ccc(Oc4c(F)ccc(NS(=O)(=O)N5CC[C@@H](F)C5)c4C#N)cc3c2=O)CC1" , report pEC50.
Output: 5.81

***
Task: For the molecule "CC(C)(C)OC(=O)NCCCn1cnc2ccc(Oc3c(F)ccc(NS(=O)(=O)C4CCCC4)c3C#N)cc2c1=O" , report pEC50.
Output: 5.61

Task: For the molecule "CC(C)(C)OC(=O)CCCn1cnc2ccc(Nc3cccc(NS(=O)(=O)N4CC[C@@H](F)C4)c3C#N)cc2c1=O" , report pEC50.
Output: 5.14

Task: For the molecule "CC(C)(C)OC(=O)NCCCn1cnc2ccc(Oc3c(F)ccc(NS(=O)(=O)N4CCCC4)c3C#N)cc2c1=O" , report pEC50.
Output: 5.92

Task: For the molecule "CC(C)(C)OC(=O)N1CCC(CCn2cnc3ccc(Nc4cccc(NS(=O)(=O)N5CCCC5)c4C#N)cc3c2=O)CC1" , report pEC50.
Output: 5.60

Task: For the molecule "CC(C)(C)OC(=O)N1CCC(CCn2cnc3ccc(Oc4c(F)ccc(NS(=O)(=O)C5CCCCC5)c4C#N)cc3c2=O)CC1" , report pEC50.
Output: 5.31
